Measured values drawn from ChEMBL document CHEMBL1128242 for this set.

Tested on: Rattus norvegicus
Run description: Analysis of lipid-soluble radioactivity in plasma 0.5 hour after iv administration of [125I]-labeled 2-Oleoyl 1,3-disubstituted Triacylglycerols and represented as % CHCl3/CH3OH from rat
Type: ADME, organism-based
Test conditions: in vivo
Readout: Lipid-soluble radioactivity

CCCCCCCC/C=C/CCCCCCCC(=O)OC(COC(=O)C(CC)Cc1c(I)cc(I)c(N)c1I)COC(=O)C(CC)Cc1c(I)cc(I)c(N)c1I (centres undefined)	88.2
CCCCCCCC/C=C/CCCCCCCC(=O)OC(COC(=O)CCCCc1c(I)cc(I)c(N)c1I)COC(=O)CCCCc1c(I)cc(I)c(N)c1I	77.4

P: CCCCCCCC/C=C/CCCCCCCC(=O)OC(COC(=O)CCCCCc1c(I)cc(I)c(N)c1I)COC(=O)CCCCCc1c(I)cc(I)c(N)c1I
Q: CCCCCCCC/C=C/CCCCCCCC(=O)OC(COC(=O)CCCCCCc1c(I)cc(I)c(N)c1I)COC(=O)CCCCCCc1c(I)cc(I)c(N)c1I
Returns: the argument ( P or Q ) having the larger Lipid-soluble radioactivity. Your choice should be expressed through its label.
P

###

System: Rattus norvegicus
Run description: Distribution of radioactivity was determined in liver at 30 min after intravenous administration of [125I]-labeled 2-oleoglycerol 1,3-Bis-[omega-(3-amino-2,4,6-triiodophenyl)alkanoates] in rats
Type: ADME, organism-based
Test conditions: in vivo, 0.5 h
Readout: Distribution of radioactivity (% dose/g)

CCCCCCCC/C=C/CCCCCCCC(=O)OC(COC(=O)CCCCCc1c(I)cc(I)c(N)c1I)COC(=O)CCCCCc1c(I)cc(I)c(N)c1I	7.01
CCCCCCCC/C=C/CCCCCCCC(=O)OC(COC(=O)CCCCCCc1c(I)cc(I)c(N)c1I)COC(=O)CCCCCCc1c(I)cc(I)c(N)c1I	7.23
CCCCCCCC/C=C/CCCCCCCC(=O)OC(COC(=O)CCCCc1c(I)cc(I)c(N)c1I)COC(=O)CCCCc1c(I)cc(I)c(N)c1I	7.37
CCCCCCCC/C=C/CCCCCCCC(=O)OC(COC(=O)Cc1c(I)cc(I)c(N)c1I)COC(=O)Cc1c(I)cc(I)c(N)c1I	7.9
CCCCCCCC/C=C/CCCCCCCC(=O)OC(COC(=O)C(CC)Cc1c(I)cc(I)c(N)c1I)COC(=O)C(CC)Cc1c(I)cc(I)c(N)c1I (stereo not given)	9.67

###

System: Rattus norvegicus
Run description: Distribution of radioactivity was determined in spleen at 30 min after intravenous administration of [125I]-labeled 2-oleoglycerol 1,3-Bis-[omega-(3-amino-2,4,6-triiodophenyl)alkanoates] in rats
Format: ADME, organism-based
Test conditions: in vivo, 0.5 h
Readout: Distribution of radioactivity (% dose/g)

A: CCCCCCCC/C=C/CCCCCCCC(=O)OC(COC(=O)CCCc1c(I)cc(I)c(N)c1I)COC(=O)CCCc1c(I)cc(I)c(N)c1I
B: CCCCCCCC/C=C/CCCCCCCC(=O)OC(COC(=O)CCCCCCc1c(I)cc(I)c(N)c1I)COC(=O)CCCCCCc1c(I)cc(I)c(N)c1I
Compare reported Distribution of radioactivity values for A and B . Which is lower? Indicate your choice by writing its label.
B
(B: 21.8 % dose/g, A: 31.7 % dose/g)
